The measured values listed here are drawn from paper PMC12040169.

List of viability at 28.5 h, 10 µM values.
Test: in vitro
Conditions: human, hela cells, % viability
Metric: viability at 28.5 h, 10 µM (%)

- O=C(c1cccc(Cn2cccn2)c1)N1CCc2sccc2C1c1ccccc1 (stereo not shown): 85.8
- O=C(c1cccnc1)N1CCN(S(=O)(=O)c2ccc(F)cc2)CC1: 92.8
- CC(=O)Nc1ccc(S(=O)(=O)N2CCN(Cc3ccc([N+](=O)[O-])cc3)CC2)cc1 [CBK264231G]: 94.3
- Nc1ncc(-c2ccncc2)nc1-c1cccc2c1oc1ccccc12: 102
- O=C(NCc1cn2ccccc2n1)c1ccc(C2SCCS2)cc1: 83.5
- Cn1cc(CN2CCN(CC3(c4ccccc4)CC3)CC2)cn1: 109
- Nc1nonc1-c1cccnc1: 105
- FC(F)(F)c1csc(Nc2ccc(Cl)c(Cl)c2)n1: 85.6
- CC1CCC(N(Cc2nnc(C3CCC3)n2C)CC2CCCO2)CC1 (stereo not shown): 97.3
- CC(C)(C)CC(=O)NS(=O)(=O)c1cccc(-c2nnco2)c1: 78
- CC1(C)CC(CCNC(=O)CCC(=O)O)(c2ccccc2)CCO1 (stereo not shown): 85.7
- N#Cc1ccc(CN2CCC(NC3CCCn4nccc43)C2=O)cc1 (stereo not shown): 97.8
- CC(C)[C@H](CO)Nc1cncc(-c2cccc3ccccc23)n1: 85.9
- O=S(=O)(N1CCCCCC1)N1CCN(S(=O)(=O)N2CCCCCC2)CC1: 88.3
- CC(=O)N[C@H]1CC[C@]2(C)CCC([C@H](C)C(=O)NC3CC3)[C@H](O)[C@H]2[C@@H]1C (stereo partly shown): 93.9
- CCCn1c(C)nnc1CN(CC1CCCO1)C1CCC(C)CC1 (stereo not shown): 92
- O=C(c1ccccc1F)[C@H]1CCCN(C(=O)c2cc(C3CC3)n[nH]2)C1: 80
- Cn1ccnc1C(=O)N1C[C@H]2CCc3c(n[nH]c3C(F)(F)F)[C@H]2C1: 101
- NC1CCC(Nc2cncc(-c3ccc(F)c(Cl)c3)n2)CC1 (stereo not shown): 99.6

---

Test: in vitro
Details: human, hela cells, % viability
Metric: viability at 28.5 h, 10 µM (%)

- Cc1csc(Sc2nc3ccccc3nc2C(F)(F)F)n1: 94.9
- CCCCn1c(=O)c(C(=O)Nc2ccccc2S(N)(=O)=O)c(O)c2ccccc21: 98.6
- Cc1csc(NC(=O)c2ccc(S(=O)(=O)N3CCCCC3)cc2)n1: 102
- O=C(CCn1c(-c2ccncc2)cc2cccnc21)N1CCCC1: 96.7
- CN1C(=O)c2ccccc2C(=O)[C@@]2(C)CN(C(=O)c3ccccc3)C[C@@H]12: 93.2
- CCc1nnc(NS(=O)(=O)c2ccc(NCc3ccccc3O)cc2)s1: 113
- COc1cccc(C(=O)N2CCC(Cc3ccc(-c4ccccc4)cc3)(C(N)=O)CC2)c1: 103
- COc1cc(/C=N/CC/N=C/c2ccc(O)c(OC)c2)ccc1O: 106
- O=C(NCCCN1CCOCC1)c1c(Cl)cccc1Cl: 93
- O=C(Nc1ccc(O)cc1)c1ccc(N2C(=O)c3cccc([N+](=O)[O-])c3C2=O)cc1: 89.8
- COc1ccc(C(=O)COC(=O)c2cc(-c3ccc(Cl)cc3)nc3ccc(C)cc23)cc1[N+](=O)[O-]: 90.6
- O=C(CCCn1cccn1)N1CCOC(c2ccc(Cl)cc2)C1 (centres unmarked): 79.1
- Cn1c(=O)c2c(nc(NCCCO)n2C/C=C/c2ccccc2)n(C)c1=O: 87.2
- Cn1nc(NC(=O)c2ccco2)c2c(F)cccc21: 93.7
- c1cncc(COc2cncc(OC3CCN(CCN4CCOCC4)C3)n2)c1 (centres unmarked): 99.7
- CCn1c(=O)n(CC(=O)N(C)C)c2cccnc21: 89.1
- COc1cccc(C2C(C(=O)c3ccc(C)o3)=C(O)C(=O)N2CCN2CCOCC2)c1 (centres unmarked): 92.8
- O=C(Nc1ccncc1)c1ccc2nc[nH]c2c1: 93.2
- CC(=O)N1CCN(c2ccc(NC(=O)c3cccc4c(Br)cccc34)cc2Cl)CC1: 93.8
- Cc1ccc(SC(C)C(=O)Nc2cc(Cl)ccc2O)cc1 (centres unmarked): 87.9
- O=C(NCCc1c[nH]c2ccccc12)N1CCN(Cc2ccccc2)CC1: 78.9
- Cn1ncc2c(NCCCC3CCOC3)nc(C(C)(C)C)nc21 (centres unmarked): 113
- O=C(Cc1c[nH]c2ccccc12)NC(Cc1ccccc1)C(=O)O (centres unmarked): 120
- CS(=O)(=O)Nc1ccc2cc(-c3ccccc3)cnc2n1: 91.2
- CN(C)CCN(C)c1cccc(/C=C/c2ccccc2)n1: 109
- CCOC(=O)c1sc2cccc(F)c2c1COC(=O)c1ccc(CNC(N)=O)cc1: 101
- CCC(NC(=O)Nc1cc(N2CCOCC2)ccc1Cl)c1nccs1 (centres unmarked): 93.2
- CC1CCN(Cc2ccc(-c3cn(CC(=O)NCc4ccc(Br)cc4)nn3)cc2)CC1: 93
- COc1ccccc1Nc1nc(N)nc(CN2CCc3ccccc3C2)n1: 95.1
- CN1C[C@@H](NC(=O)c2cccnc2)C[C@H]1c1nc(-c2cccnc2)no1: 86.7
- CNCC(=O)N1c2ccccc2CCc2ccc(NC(=O)OC)cc21 [CBK261285C]: 96.5
- Cc1c(Cl)cccc1S(=O)(=O)Nc1nc(-c2cccc([N+](=O)[O-])c2)cs1: 107
- CN1CCN(c2cc(NCC(c3cccnc3)N(C)C)nc3ccnn23)CC1 (centres unmarked): 106
- CCCCc1c(Cl)nc(C#N)c2c1CCCC2: 98.9
- CCn1c(-c2ccc(C)cc2)cnc1SCC(=O)N1CCN(C(C)=O)CC1: 110
- O=C(Nc1nnn[nH]1)C1(c2ccc([N+](=O)[O-])cc2)CCCC1: 93.7
- CCc1c(C)sc2ncn(C3CCN(C(=O)C(C)C)CC3)c(=O)c12: 81.1
- CC(=O)Nc1ccc(Nc2cc(-c3ccc(Cl)cc3)ncn2)cc1: 93.6
